System: OV90
Test: Primary qHTS to identify gynecologic anti-cancer compounds using libraries of approved drugs and bioactive compounds (AID 1345084); note: nearly all actives have a fitted effect of over 55% in size; note: potency is the fitted concentration of half-maximal effect
Settings: Gynecologic cancer cell panel viability, ATPlite luminescence, 48 h; series mostly up to 57.5 µM
Inconclusive results are not listed. Calls of active or inactive are those of the source. Calls come from the whole dose curve; as a rule, active = well fitted cell-killing curve with a large enough effect; inconclusive = small, poorly fitted or top-dose-only effect, or effect the other way; inactive = flat fitted curve, though single readings scatter.
Test readout: Potency

Example compounds with recorded Potency:
[
  {
    "Compound": "CCOC(=O)[C@H](CCc1ccccc1)N[C@@H](C)C(=O)N1Cc2ccccc2C[C@H]1C(=O)O",
    "Potency": "inactive"
  },
  {
    "Compound": "O=C(Nc1ccc(Cl)c(Cl)c1)C1CC1",
    "Potency": "inactive"
  },
  {
    "Compound": "CCN(CC)CCNC(=O)COc1ccc(Cl)cc1",
    "Potency": "inactive"
  },
  {
    "Compound": "COc1cccc(OC)c1C(=O)N[C@@H]1C(=O)N2[C@@H]1SC(C)(C)[C@@H]2C(=O)O",
    "Potency": "inactive"
  },
  {
    "Compound": "CCCSS/C(CCO)=C(\\C)N(C=O)Cc1cnc(C)nc1N",
    "Potency": "inactive"
  },
  {
    "Compound": "O=C1OC2(c3ccc(O)cc3Oc3cc(O)ccc32)c2ccccc21",
    "Potency": "inactive"
  }
]

GET /values?readout=Potency&system=OV90&item= CCCCC(=O)O[C@]1(C(=O)CO)CC[C@H]2[C@@H]3CCC4=CC(=O)CC[C@]4(C)[C@H]3[C@@H](O)C[C@@]21C
inactive

GET /values?readout=Potency&system=OV90&item= C#C[C@]1(OC(C)=O)CC[C@H]2[C@@H]3CCC4=C[C@@H](OC(C)=O)CC[C@@H]4[C@H]3CC[C@@]21C
inactive

GET /values?readout=Potency&system=OV90&item= COc1cccc2c1C(=O)c1c(O)c3c(c(O)c1C2=O)C[C@@](O)(C(=O)CO)C[C@@H]3O[C@H]1C[C@H](N)[C@H](O)[C@H](C)O1
4.47 µM (active)

GET /values?readout=Potency&system=OV90&item= CC(C)(Oc1ccc(Cl)cc1)C(=O)O
inactive

GET /values?readout=Potency&system=OV90&item= CC(=O)N/N=C/c1ccc([N+](=O)[O-])o1
inactive

GET /values?readout=Potency&system=OV90&item= CN1C(CCl)Nc2cc(Cl)c(S(N)(=O)=O)cc2S1(=O)=O (centres undefined)
inactive
